Measured apparent KD of MS2 coat protein accompanies every entry in the list below.
# Tested on: MS2 coat protein
# protocol.description: apparent KD of MS2 coat protein; designed switch direction (-1 OFF switch, 1 ON switch): -1; higher = weaker reporter binding
# condition.label: Eterna round: R95; input ligand: none

sequence: AGUAGUAGUAUCCGAUCUUACAUGAGGAUCACCCAUGUUUCUAGACGUGCACGCGAUGCUCGUCAGACUACCAGAUG [salish99_TOv1_r3_053] (puzzle: Sensor v3, turn-off variant 1)
apparent KD of MS2 coat protein / nM: 174
--
sequence: AAGAAACAUGAGGAUCACCCAUGUGAGGAUAUGAAAAAGAAAAGAAAAGAAAGAAGCAUCAGAAGGCACAAAGG [salish99-ex1_r3_026] (puzzle: Exclusion 1)
apparent KD of MS2 coat protein / nM: 31.1
--
sequence: GGUUGCGCAGGAUAUACAUGAGGAUCACCCAUGUGAGAGAAAUAAGUGAGGAAGAAAAGUAGAAGGGCGUGACG [Mat - Exclusion 3 - Mod of Salish D72] (puzzle: Exclusion 3)
apparent KD of MS2 coat protein / nM: 68.9
--
sequence: UGGUAACAUGAGGAUCACCCAUGUCAGGAUAUCAGGAAGAAGAGAGGAGAGUAGAAGAUGAGAAGGGACUAUAU [Excluse me! 10 - Jieux - Exclusion 1] (puzzle: Exclusion 1)
apparent KD of MS2 coat protein / nM: 27.5
--
sequence: GAAAAGGUAGGAUAUACGAAAAAAAAGGGUAGAAAAAAAACACAUGAGGAUCACCCAUGUAGAAGGACCGAAAG [salish99_ex2_r3_037] (puzzle: Exclusion 2)
apparent KD of MS2 coat protein / nM: 32.7
--
sequence: AAAAAACAAGGAUAUACAAAAAAAAAAUGUGAUAAAAAACCACAUGAGGAUCACCCAUGUAGAAGGUGUAAAAA [JR_Exclusion2_Sub003] (puzzle: Exclusion 2)
apparent KD of MS2 coat protein / nM: 65
--
sequence: AAGUACCGUCACGAUAGUGAUGGUACAACAAGCAGGUGAACAUGAGGAUCACCCAUGUCCUCAAUUGCUCGUCUUAU [Sensor 3 - 73] (puzzle: Sensor v3, turn-off variant 2)
apparent KD of MS2 coat protein / nM: 159
--
sequence: UAAUACAAGCAAAGAUCUUACAUGAGGAUCACCCAUGUGCUCGUCUUAUAAAGUACUAUCACGAAAGUGAUAGUACU [Mat - Sensor v3 - turn-off var 1 - Eli Mod - D94] (puzzle: Sensor v3, turn-off variant 1)
apparent KD of MS2 coat protein / nM: 34.6
--
sequence: UCAAGCUUUAAGCGCGUGAACAUGAGGAUCACCCAUGUAUUUCGGGUUUUGGUUUUUUGUAUGGGUUCUUGUCUUAU [JR_SWV3TOV1_Sub096] (puzzle: Sensor v3, turn-off variant 1)
apparent KD of MS2 coat protein / nM: 41.8
--
sequence: UGGCUACCUUGGUGCUCUACAAGCUUUUUGCUCGUUUUAACAUGAGGAUCACCCAUGUCUAGUGGAUCUGAUCGGGC [JL ViennaUCT Isreen mod 1] (puzzle: Sensor v3, turn-off variant 2)
apparent KD of MS2 coat protein / nM: 62.7
--
sequence: AAAUAACAAGCAGGAUCCUACAUGAGGAUCACCCAUGUGCUCGUCUUAUAAAGUACUAUCACGAAAGUGAUAGUACU [Mat - Sensor v3 - turn-off var 1 - Eli Mod - D72] (puzzle: Sensor v3, turn-off variant 1)
apparent KD of MS2 coat protein / nM: 156
--
sequence: GGUACUAACACGGAAGUGUUAGUACUAUAAGCUUGUGUUACAUGAGGAUCACCCAUGUCCUCAUAAGCUCGUCUUAU [Mat - Sensor v3 - Turn-off var 2 - D75] (puzzle: Sensor v3, turn-off variant 2)
apparent KD of MS2 coat protein / nM: 90.7
--
sequence: GAUUGACAUGAGGAUCACCCAUGUGAGGAUAUCGGCUGGUACGUGUUGGCUUGCCUCUCGAGAAGGCGCAUAGG [Exclusion 1 V55] (puzzle: Exclusion 1)
apparent KD of MS2 coat protein / nM: 63.1
--
sequence: GGUCGGCGAGGAUAUACAUGAGGAUCACCCAUGUGAUAUAGUGCACGCGUACGUGUACGUAGAAGGCGCUGACG [JL-ex3-3.26 salish99 mod] (puzzle: Exclusion 3)
apparent KD of MS2 coat protein / nM: 15.1
--
sequence: CAGUACUGAGGAUAUACAUGAGGAUCACCCAUGUGUUCCAGCUAGGAUACUAGCAAAAGUAGAAGGCAGUACUG [salish99_ex3_r3_095x] (puzzle: Exclusion 3)
apparent KD of MS2 coat protein / nM: 24
--
sequence: AGUACUAACACGAAAGUGUUAGUACAAUAAGCUUGUAAAACAUGAGGAUCACCCAUGUCCUCAUAAGCUCGUCUUAU [Mat - Sensor v3 - Turn-off var 2 - D47] (puzzle: Sensor v3, turn-off variant 2)
apparent KD of MS2 coat protein / nM: 446
--
sequence: GGAAUACAUGAGGAUCACCCAUGUAAGGAUAUGCUGAAUAUUACGGAAUAAACGUGCAGCAGAAGGUACAAAGG [Mat - Mod of my Eli Mod D47] (puzzle: Exclusion 1)
apparent KD of MS2 coat protein / nM: 125
--
sequence: AGUGCGUAUGUGAGGAUAUGCUGGUCCUUGGAUCGGCAGAAGGUACAUGAGGAUCACCCAUGUGGUGUCGUUCU [salish99_Bmod_ex4_104] (puzzle: Brourd's mod of Exclusion 4)
apparent KD of MS2 coat protein / nM: 261
--
sequence: AUUAUAAUAUAGGAUAUCGAAAUAAUUAUUUAACGAGAAGGAUGAACAUGAGGAUCACCCAUGUGGUAUCAUGG [Mat - Exclusion 6 - JL Mod - D33] (puzzle: Exclusion 6)
apparent KD of MS2 coat protein / nM: 224

// provenance: the supplement of paper PMC9170038
